- System: primary murine bone-marrow neutrophils
- protocol description: Live cell imaging viability of primary bone-marrow neutrophils
- cond: read-out: EC50 neutrophil viability, Mcl-1+/-; Mcl-1+/- neutrophils; 12 hour time-point
observable: pEC50
A value of pEC50 is the negative decimal logarithm of a concentration given in moles per litre.

Problem: Quick check: pEC50 of Cc1ccc([N+](=O)[O-])cc1S(=O)(=O)N(C)/N=C/c1cnc2ccc(Br)cn12 ?
Result: 7.24

----------
Answer each item with its documented log10(IC50).
- System: OCI-AML3
- protocol description: Cell Titer Glo cell viability assay, 48 h
- Format: cell-based, human
- cond: 48 h; mean of 2 independent experiments; 0 = less than 10 nM, cell line not given; read-out: IC50 of inhibitors on cell lines, m (mean)
Values reflect log10 of reported IC50 (µM).

Problem: Please state recorded log10(IC50) (tested on OCI-AML3) of CC(=O)Nc1ccc([C@H](C)C(=O)Nc2ncc(C(C)C)s2)cc1 [PHA690509]
Result: 0.79

Problem: Please state recorded log10(IC50) (tested on OCI-AML3) of CN(c1ccccc1CNc1nc(Nc2ccc3c(c2)CC(=O)N3)ncc1C(F)(F)F)S(C)(=O)=O [PF431396]
Result: 0.47

Problem: Please state recorded log10(IC50) (tested on OCI-AML3) of Cc1cc(C(C)Nc2ccccc2)c2nc(N3CCOCC3)cc(=O)n2c1 (centres unmarked) [TGX221]
Result: 0.99

Problem: Please state recorded log10(IC50) (tested on OCI-AML3) of Cc1ccc([N+](=O)[O-])cc1S(=O)(=O)N(C)/N=C/c1cnc2ccc(Br)cn12 [PIK-75]
Result: -1.00

Problem: Please state recorded log10(IC50) (tested on OCI-AML3) of COc1ccc2c(c1OC)N=C(NC(=O)c1cccnc1)N1CCN=C21 [PIK-90]
Result: -0.09

Problem: Please state recorded log10(IC50) (tested on OCI-AML3) of Nc1ccc(C(=O)Nc2cccc(-c3nc(N4CCOCC4)c4oc5ncccc5c4n3)c2)cn1 [YM201636]
Result: 0.59

----------
- System: primary murine bone-marrow neutrophils
- protocol description: Live cell imaging viability of primary bone-marrow neutrophils
- cond: Mus musculus, Neutrophil, read-out: EC50 neutrophil viability, GM-CSF primed
observable: EC50

Problem: Quick check: EC50 of CC(C)(C)c1cnc(CSc2cnc(NC(=O)C3CCNCC3)s2)o1 ?
Result: 218 nM

----------
- Tested on: HEL.92.1.7
- protocol description: Cell Titer Glo cell viability assay, 48 h
- Assay type: cell-based, human
- cond: Homo sapiens; 48 h; mean of 2 independent experiments; 0 = less than 10 nM, cell line not given; read-out: IC50 of inhibitors on cell lines, m (mean)
pIC50: −log10 of the molar value.
Answer each item with its documented pIC50.

Problem: Quick check: pIC50 of Cc1[nH]c(/C=C2\C(=O)Nc3ccccc32)c(C)c1CCC(=O)O ?
Result: < 5.00

Problem: Quick check: pIC50 of COc1cc2c(Nc3ccc(Br)cc3F)ncnc2cc1OCC1CCN(C)CC1 ?
Result: < 5.00

Problem: Quick check: pIC50 of COC(=O)c1ccc2c(c1)NC(=O)/C2=C(\Nc1ccc(N(C)C(=O)CN2CCN(C)CC2)cc1)c1ccccc1 ?
Result: 5.53

Problem: Quick check: pIC50 of OCCC#Cc1nc(-c2ccc(F)cc2)c(-c2ccncc2)n1CCCc1ccccc1 ?
Result: < 5.00

Problem: Quick check: pIC50 of CN(C)CCOc1cc(-c2cn[nH]c2)ccc1NC(=O)C1COc2ccccc2O1 (centres unmarked) ?
Result: < 5.00

Problem: Quick check: pIC50 of CCCS(=O)(=O)Nc1ccc(F)c(C(=O)c2c[nH]c3ncc(Cl)cc23)c1F ?
Result: < 5.00

Problem: Quick check: pIC50 of CNC(=O)c1cc(Oc2ccc(NC(=O)Nc3ccc(Cl)c(C(F)(F)F)c3)cc2)ccn1 ?
Result: < 5.00

Problem: Quick check: pIC50 of CCc1nc(-c2cccc(C)c2)c(-c2ccnc(NC(=O)c3ccccc3)c2)s1 ?
Result: < 5.00

Problem: Quick check: pIC50 of Cc1cc(Nc2cc(N3CCN(C)CC3)nc(Sc3ccc(NC(=O)C4CC4)cc3)n2)[nH]n1 ?
Result: 5.10

Problem: Quick check: pIC50 of Oc1cccc(-c2nc(N3CCOCC3)c3oc4ncccc4c3n2)c1 ?
Result: 5.72

Problem: Quick check: pIC50 of O=C(Nc1cccc(Cl)c1)Nc1ncc(CCNc2ncnc3ccsc23)s1 ?
Result: < 5.00

Problem: Quick check: pIC50 of CN(C)C/C=C/C(=O)Nc1cc2c(Nc3ccc(F)c(Cl)c3)ncnc2cc1O[C@H]1CCOC1 ?
Result: 5.71

Problem: Quick check: pIC50 of CCN(CC)CCNC(=O)c1c(C)[nH]c(/C=C2\C(=O)Nc3ccc(F)cc32)c1C ?
Result: 5.58

Problem: Quick check: pIC50 of CC(C)(C)c1cnc(CSc2cnc(NC(=O)C3CCNCC3)s2)o1 ?
Result: 5.88

Problem: Quick check: pIC50 of CC(C)[C@H](CO)Nc1nc(Nc2ccc(C(=O)O)c(Cl)c2)c2ncn(C(C)C)c2n1 ?
Result: < 5.00

Problem: Quick check: pIC50 of COc1nccc(-c2c(-c3ccc(F)cc3)ncn2C2CCNCC2)n1 ?
Result: < 5.00

Problem: Quick check: pIC50 of Oc1ccc(-c2nc(-c3ccncc3)c(-c3ccc(F)cc3)[nH]2)cc1 ?
Result: < 5.00

Problem: Quick check: pIC50 of COc1cc2c(N3CCN(C(=O)Nc4ccc(OC(C)C)cc4)CC3)ncnc2cc1OCCCN1CCCCC1 ?
Result: < 5.00

Problem: Quick check: pIC50 of NC(=O)c1ccc(N(C(N)=O)c2c(F)cccc2F)nc1-c1ccc(F)cc1F ?
Result: < 5.00

Problem: Quick check: pIC50 of CN(C)CCOc1ccc(-c2nc(-c3ccncc3)c(-c3ccc4c(c3)CC/C4=N\O)[nH]2)cc1 ?
Result: 5.28

----------
Answer each item with its documented pIC50.
- Tested on: HL-60
- protocol description: Cell Titer Glo cell viability assay, 48 h
- Assay type: cell-based, human
- cond: 48 h; mean of 2 independent experiments; 0 = less than 10 nM, cell line not given; read-out: IC50 of inhibitors on cell lines, m (mean)
A value of pIC50 is the negative decimal logarithm of a concentration given in moles per litre.

Problem: Quick check: pIC50 of CN(c1ccccc1CNc1nc(Nc2ccc3c(c2)CC(=O)N3)ncc1C(F)(F)F)S(C)(=O)=O ?
Result: 5.79

Problem: Quick check: pIC50 of CC(=O)Nc1ccc([C@H](C)C(=O)Nc2ncc(C(C)C)s2)cc1 ?
Result: 5.63

Problem: Quick check: pIC50 of Cc1ccc([N+](=O)[O-])cc1S(=O)(=O)N(C)/N=C/c1cnc2ccc(Br)cn12 ?
Result: 7.22

Problem: Quick check: pIC50 of COc1ccc2c(c1OC)N=C(NC(=O)c1cccnc1)N1CCN=C21 ?
Result: 5.65

Problem: Quick check: pIC50 of Nc1ccc(C(=O)Nc2cccc(-c3nc(N4CCOCC4)c4oc5ncccc5c4n3)c2)cn1 ?
Result: 5.32

----------
Answer each item with its documented pIC50.
- System: U937
- protocol description: Cell Titer Glo cell viability assay, 48 h
- Type: cell-based, human
- cond: 48 h; mean of 2 independent experiments; 0 = less than 10 nM, cell line not given; read-out: IC50 of inhibitors on cell lines, m (mean)
A value of pIC50 is the negative decimal logarithm of a concentration given in moles per litre.

Problem: Quick check: pIC50 of CC1=C(C(=O)Nc2cc3cn[nH]c3cc2F)C(c2ccc(C(F)(F)F)cc2)CC(=O)N1 (centres unmarked) ?
Result: 5.02

Problem: Quick check: pIC50 of Cc1cc(C(C)Nc2ccccc2)c2nc(N3CCOCC3)cc(=O)n2c1 (centres unmarked) ?
Result: 5.01

Problem: Quick check: pIC50 of Nc1ccc(C(=O)Nc2cccc(-c3nc(N4CCOCC4)c4oc5ncccc5c4n3)c2)cn1 ?
Result: 5.62

Problem: Quick check: pIC50 of COc1ccc2c(c1OC)N=C(NC(=O)c1cccnc1)N1CCN=C21 ?
Result: 5.63

Problem: Quick check: pIC50 of Cc1ccc([N+](=O)[O-])cc1S(=O)(=O)N(C)/N=C/c1cnc2ccc(Br)cn12 ?
Result: 7.22

Problem: Quick check: pIC50 of CN(c1ccccc1CNc1nc(Nc2ccc3c(c2)CC(=O)N3)ncc1C(F)(F)F)S(C)(=O)=O ?
Result: 5.91

Problem: Quick check: pIC50 of CC(=O)Nc1ccc([C@H](C)C(=O)Nc2ncc(C(C)C)s2)cc1 ?
Result: 5.98

----------
- System: MV4;11
- protocol description: Cell Titer Glo cell viability assay, 48 h
- Type: cell-based, human
- cond: Homo sapiens; 48 h; mean of 2 independent experiments; 0 = less than 10 nM, cell line not given; read-out: IC50 of inhibitors on cell lines, m (mean)
Answer each item with its documented IC50.
Give your result in µM as a bare value.

Problem: Quick check: IC50 of COC(=O)c1ccc2c(c1)NC(=O)/C2=C(\Nc1ccc(N(C)C(=O)CN2CCN(C)CC2)cc1)c1ccccc1 [Vargatef] ?
Result: 0.04

Problem: Quick check: IC50 of CCCS(=O)(=O)Nc1ccc(F)c(C(=O)c2c[nH]c3ncc(Cl)cc23)c1F [PLX4720] ?
Result: 5.6
